Target: Coagulation factor X (Homo sapiens, UniProt P00742)
Sequence (P00742 41-179 limits assumed): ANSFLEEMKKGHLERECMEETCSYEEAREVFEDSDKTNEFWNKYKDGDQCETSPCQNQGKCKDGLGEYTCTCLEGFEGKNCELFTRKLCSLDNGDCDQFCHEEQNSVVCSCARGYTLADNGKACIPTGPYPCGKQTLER
Sequence (P00742 235-488 limits assumed): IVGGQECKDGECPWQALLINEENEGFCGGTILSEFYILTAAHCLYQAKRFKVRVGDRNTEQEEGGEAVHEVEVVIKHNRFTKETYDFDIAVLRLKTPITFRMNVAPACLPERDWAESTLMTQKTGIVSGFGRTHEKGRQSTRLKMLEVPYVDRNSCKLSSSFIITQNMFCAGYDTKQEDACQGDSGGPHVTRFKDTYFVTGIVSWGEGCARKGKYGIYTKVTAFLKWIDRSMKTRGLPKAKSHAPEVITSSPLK
MEASURED ATTRIBUTE: Ki (µM)
Numbers only, in µM.

Ki in this record for "Cc1c(F)c(Oc2cccc(CN)c2)cc(Oc2cccc(C(=N)N)c2)c1F" : 1.4

----------
Molecular target: Serine protease 1 (Bos taurus)
Sequence (P00760 whole entry): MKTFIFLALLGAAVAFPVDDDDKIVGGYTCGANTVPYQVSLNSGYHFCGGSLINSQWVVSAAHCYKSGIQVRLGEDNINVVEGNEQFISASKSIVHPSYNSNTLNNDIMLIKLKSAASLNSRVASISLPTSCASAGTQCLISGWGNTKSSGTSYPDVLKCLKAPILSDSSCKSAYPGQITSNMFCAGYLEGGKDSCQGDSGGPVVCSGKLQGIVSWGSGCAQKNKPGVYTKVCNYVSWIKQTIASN
Assay: Inhibitory constant against trypsin
Hi there, I'd appreciate the recorded pKi for every entry that follows.
Answers are plain numbers, as −log10 of the molar value.

SMILES STR | STUDY SYSTEM | READING
Cc1c(F)c(Oc2cccc(CN)c2)cc(Oc2cccc(C(=N)N)c2)c1F | Serine protease 1 (Bos taurus) | 5.54

With those in mind, consider the next compound.
Please fill in: pKi reported for "Cc1c(F)c(Oc2cccc(C(=N)N)c2)cc(Oc2cccc(C(=N)N)c2)c1F" = 6.13

These data points were gathered from ChEMBL document CHEMBL1132402.
